# TARGET_SYSTEM: human GPBAR1 receptor (Homo sapiens)
# Construct: expressed in transfected cells
# Sequence (Q8TDU6 whole entry): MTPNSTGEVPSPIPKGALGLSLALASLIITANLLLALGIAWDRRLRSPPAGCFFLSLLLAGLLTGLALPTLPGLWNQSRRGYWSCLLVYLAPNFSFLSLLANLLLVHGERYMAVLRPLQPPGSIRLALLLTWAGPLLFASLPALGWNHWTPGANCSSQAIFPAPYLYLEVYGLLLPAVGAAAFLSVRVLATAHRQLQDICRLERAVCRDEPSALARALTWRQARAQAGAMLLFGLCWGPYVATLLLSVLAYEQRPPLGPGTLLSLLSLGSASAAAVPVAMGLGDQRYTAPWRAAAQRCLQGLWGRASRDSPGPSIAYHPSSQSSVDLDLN
# ASSAY_INFO: functional cAMP assay in CHO-dhfr(minus) cells expressing human GPBAR1 receptors
# Format: cell-based
# EXPERIMENTAL_SETUP: human EC50, functional cAMP assay, 30 min at 30° C.
VALUE_TYPE: EC50 (nM)
Answers are plain numbers, in nM.

See these solved cases before continuing.
>>> measured("Cc1ncsc1C(C/C(=N\\O)c1ccc(=O)n(C)c1)c1ccc(Br)cc1 (stereo not drawn) [Example 330]")
92
>>> measured("Cc1cc(Cl)ccc1C(C/C(=N\\O)c1ccc(=O)n(C)c1)c1ccc(S(C)(=O)=O)cc1 (single isomer, unassigned; (+)) [Example 334]")
68
>>> measured("Cc1cc(F)ccc1C(C/C(=N\\O)c1ccc(=O)n(C)c1)c1ccc(-c2ccc(S(N)(=O)=O)cc2)cc1 (stereo not drawn) [Example 401]")
5
>>> measured("Cc1ccccc1C(C/C(=N\\O)c1ccc(=O)n(C)c1)c1ccc(C(=O)NC[C@H](C)O)cc1 (stereo partly drawn) [Example 247]")
220
>>> measured("Cc1ccccc1[C@H](C/C(=N\\O)c1ccnc(Cl)c1)c1ccc(-c2ccc(C(=O)O)cc2)cc1 [Example 290]")
37
>>> measured("Cc1cc(F)ccc1[C@@H](C/C(=N\\O)c1ccc(=O)n(C)c1)c1ccc(-c2ccc(S(N)(=O)=O)cc2)cc1 (single isomer, unassigned) [Example 407]")
12
>>> measured("CCCCC(C/C(=N\\O)c1ccc(=O)n(C)c1)c1ccc(Br)cc1 (stereo not drawn) [Example 177]")
256
>>> measured("Cc1cc(/C(CC(c2cccc(-c3ccc(C(=O)O)c(F)c3)c2)c2ccccc2C)=N/O)ccn1 (stereo not drawn) [Example 101]")
1700

Please give EC50 for each item listed below.
1. Cc1cc(/C(C[C@H](c2ccc(CC(=O)O)cc2)c2ccc(Cl)cc2C)=N/O)ccn1 [Example 382]
2. Cc1cc(/C(C[C@H](c2ccc(N3CCC(C(=O)O)CC3)cc2)c2ccc(Cl)cc2C)=N/O)ccn1 [Example 284]

1: 41; 2: 2

Need EC50 for each of these molecules.
1. Cc1cc(/C(C[C@H](c2ccc([C@H]3CC[C@@H](C(=O)O)CC3)cc2)c2ccccc2C)=N/O)ccn1 [Example 492]
2. Cc1cc(C(CC(c2cccc(Br)c2)c2ccccc2C)=NO)ccn1 (racemic) [Example 98]
3. Cc1cc(/C(C[C@H](c2ccc(C3CCN(S(C)(=O)=O)CC3)cc2)c2ccccc2C)=N/O)ccn1 [Example 379]
4. Cc1ccccc1C(C/C(=N\O)c1ccc(=O)n(C)c1)c1ccc(C(=O)N(C)CC(=O)O)cc1 (stereo not drawn) [Example 211]
5. Cc1cc(/C(CC(c2ccc(C(=O)NCCO)cc2)c2ccc(F)cc2F)=N/O)ccn1 (stereo not drawn) [Example 433]
6. Cc1cc(/C(C[C@H](c2ccc(-c3ccc(C(=O)O)cc3)cc2)c2ccccc2C)=N/O)cc(C)n1 [Example 294]
7. Cc1cc(/C(C[C@H](c2ccc(N3CCC(C(N)=O)CC3)cc2)c2ccccc2C)=N/O)ccn1 [Example 367]
8. Cc1cc(Cl)ccc1C(C/C(=N\O)c1ccc(=O)n(C)c1)c1ccc(N2CCCC2=O)cc1 (stereo not drawn) [Example 355]

1: 18; 2: 146; 3: 14; 4: 5980; 5: 55; 6: 21; 7: 1; 8: 110

// batch mode: one EC50 value per listed entry
1. Cc1ccccc1C(CC(=NO)c1cc(Cl)ccc1Cl)c1ccc(Br)cc1 (racemic) [Example 49]
2. Cc1ccccc1C(C/C(=N\O)c1ccnc2cc(Cl)ccc12)c1ccc(Br)cc1 (stereo not drawn) [Example 157]
3. COC(=O)c1ccc(-c2ccc(C(C/C(=N\O)c3ccnc(C)c3)c3ccc(Cl)cc3F)cc2)cc1F (stereo not drawn) [Example 446]
4. Cc1cc(/C(C[C@H](c2ccc(N3CCC(CO)CC3)cc2)c2ccccc2C)=N/O)ccn1 [Example 269]

[2910, 3640, 59, 2]

Can you give me EC50 for all of these, one by one?
1. Cc1cc(F)ccc1C(C/C(=N\O)c1ccc(=O)n(C)c1)c1ccc(-c2ccc(NC(=O)CCC(=O)O)cc2)cc1 (stereo not drawn) [Example 392]
2. Cc1ccccc1C(CC(=NO)c1ccncc1)c1ccc(C(=O)O)cc1 (racemic) [Example 70]

54
2730

Kindly give each listed record's EC50.
1. Cn1cc(/C(CC(c2ccc(Br)cc2)c2ccc(Cl)cc2F)=N/O)ccc1=O (single isomer, unassigned; (-)) [Example 240]
2. COc1cc(C(CC(c2ccc(Br)cc2)c2ccccc2C)=NO)ccn1 (racemic) [Example 109]
3. COCCN(C)c1ccc(C(C/C(=N\O)c2ccncc2)c2ccccc2C)cc1 (stereo not drawn) [Example 39]
4. Cc1cc(/C(C[C@@H](c2ccc(N3CCOCC3)cc2)c2ccccc2C)=N/O)ccn1 [Example 381]
5. CC(=O)Nc1cccc(C(C/C(=N\O)c2ccc(=O)n(C)c2)c2ccc(Cl)cc2F)c1 (stereo not drawn) [Example 319]

1. 31
2. 702
3. 75
4. 50
5. 2520
